# Tested on: 293T cells
# ASSAY TEXT: Growth assay (cytotoxicity)
# Assay type: cell-based
# TEST SETTINGS: 0.185 uM, 2 day incubation
OUTCOME MEASURE: % Growth at 0.185 uM

[[record]]
query_smiles = "CCc1cc(-c2cnc(NS(=O)(=O)c3ccccc3Cl)nc2OC)cc2cnc(N[C@H]3CC[C@H](N)CC3)nc12.O=CO"
endpoint_result = "D (D: >75% to ≤100%)"

[[record]]
query_smiles = "CCc1cc(-c2ccc(NS(=O)(=O)c3ccccc3Cl)cc2)cc2cnc(N[C@H]3CC[C@H](N)CC3)nc12.O=CO"
endpoint_result = "D (D: >75% to ≤100%)"

[[record]]
query_smiles = "CCc1cc(-c2cnc(NS(=O)(=O)c3ccccc3Cl)nc2C)cc2cnc(N[C@H]3CC[C@H](N)CC3)nc12.O=CO"
endpoint_result = "D (D: >75% to ≤100%)"


* * *

Listed here: items and their measured pEC50.
# EXPERIMENTAL TARGET: IRE1a (Homo sapiens, UniProt O75460)
# Sequence (O75460 19-977): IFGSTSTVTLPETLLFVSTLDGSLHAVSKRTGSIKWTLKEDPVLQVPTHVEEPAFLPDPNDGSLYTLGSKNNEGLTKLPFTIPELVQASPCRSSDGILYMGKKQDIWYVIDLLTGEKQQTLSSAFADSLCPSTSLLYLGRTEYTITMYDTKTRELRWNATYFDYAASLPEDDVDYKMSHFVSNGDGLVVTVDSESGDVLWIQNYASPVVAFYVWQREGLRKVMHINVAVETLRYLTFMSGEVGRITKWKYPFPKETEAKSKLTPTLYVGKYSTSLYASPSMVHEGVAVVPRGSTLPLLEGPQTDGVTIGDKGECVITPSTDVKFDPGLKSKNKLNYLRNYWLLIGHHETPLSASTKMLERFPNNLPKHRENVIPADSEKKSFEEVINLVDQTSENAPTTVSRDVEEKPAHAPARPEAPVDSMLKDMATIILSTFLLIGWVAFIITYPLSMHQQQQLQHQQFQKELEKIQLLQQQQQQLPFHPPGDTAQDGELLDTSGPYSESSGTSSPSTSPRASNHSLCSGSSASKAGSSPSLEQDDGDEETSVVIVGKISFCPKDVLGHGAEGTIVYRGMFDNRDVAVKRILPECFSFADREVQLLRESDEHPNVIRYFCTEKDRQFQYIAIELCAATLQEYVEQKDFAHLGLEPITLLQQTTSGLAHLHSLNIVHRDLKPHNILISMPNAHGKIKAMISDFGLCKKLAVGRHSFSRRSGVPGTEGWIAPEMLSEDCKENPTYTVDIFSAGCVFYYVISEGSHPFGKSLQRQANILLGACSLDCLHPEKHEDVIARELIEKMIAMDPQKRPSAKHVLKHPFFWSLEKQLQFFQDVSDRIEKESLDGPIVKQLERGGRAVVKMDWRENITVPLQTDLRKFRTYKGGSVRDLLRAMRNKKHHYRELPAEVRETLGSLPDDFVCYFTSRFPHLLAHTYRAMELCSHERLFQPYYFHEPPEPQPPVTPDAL
# ASSAY TEXT: IRE1a Endoribonuclease Nanoluciferase Assay (XBP1 luciferase reporter in 293T cells)
# TEST SETTINGS: 293T cells transfected with XBP1 luciferase reporter, ER stressors +/- inhibitors
pEC50: −log10 of the molar value.
OUTCOME MEASURE: pEC50

[[record]]
compound = "CCc1cc(-c2ccc(NS(=O)(=O)c3cccc(C)c3)nc2C)cc2cnc(N[C@H]3CC[C@H](N)CC3)nc12"
endpoint_result = "7.30 to 8.30"

[[record]]
compound = "N[C@H]1CC2C[C@@H](Nc3ncc4cc(-c5ccc(NS(=O)(=O)c6ccccc6Cl)c(F)c5)ccc4n3)CC2C1 (stereo partly shown)"
endpoint_result = "< 7.00"

[[record]]
compound = "Cc1cc2nc(N[C@H]3CC[C@H](N)CC3)ncc2cc1-c1ccc(NS(=O)(=O)c2ccccc2Cl)c(F)c1"
endpoint_result = "7.30 to 8.30"

[[record]]
compound = "COc1nc(NS(=O)(=O)c2ccccc2Cl)ccc1-c1cc(C(C)(F)F)c2nc(N[C@H]3CC[C@H](N)CC3)ncc2c1"
endpoint_result = "≥ 8.30"


* * *

# Tested on: 293T cells
# ASSAY TEXT: Growth assay (cytotoxicity)
# Format: cell-based
# TEST SETTINGS: 5 uM, 2 day incubation
OUTCOME MEASURE: % Growth at 5 uM

[[record]]
molecule = "CCc1cc(-c2ccc(NS(=O)(=O)c3ccccc3Cl)c(C)c2C)cc2cnc(N[C@H]3CC[C@H](N)CC3)nc12.O=CO [22; Formic Acid]"
endpoint_result = "A (A: ≤25%)"

[[record]]
molecule = "CCc1cc(-c2ncc(NS(=O)(=O)c3ccccc3Cl)cc2F)cc2cnc(N[C@H]3CC[C@H](N)CC3)nc12.O=CO [52; Formic Acid]"
endpoint_result = "C (C: >50% to ≤75%)"

[[record]]
molecule = "CCc1cc(-c2ccc(NS(=O)(=O)c3ccccc3Cl)cc2C)cc2cnc(N[C@H]3CC[C@H](N)CC3)nc12.O=CO [3; Formic Acid]"
endpoint_result = "A (A: ≤25%)"

[[record]]
molecule = "CCc1cc(-c2cnc(NS(=O)(=O)c3ccccc3Cl)nc2OC)cc2cnc(N[C@H]3CC[C@H](N)CC3)nc12.O=CO [46; Formic Acid]"
endpoint_result = "D (D: >75% to ≤100%)"

[[record]]
molecule = "CCc1cc(-c2cnc(NS(=O)(=O)c3ccccc3Cl)nc2C)cc2cnc(N[C@H]3CC[C@H](N)CC3)nc12.O=CO [23; Formic Acid]"
endpoint_result = "D (D: >75% to ≤100%)"

[[record]]
molecule = "CCc1cc(-c2ccc(NS(=O)(=O)c3ccccc3Cl)c(F)c2)cc2cnc(N[C@H]3CC[C@H](N(C)C)CC3)nc12.O=CO [69; Formic Acid]"
endpoint_result = "C (C: >50% to ≤75%)"

[[record]]
molecule = "CCc1cc(-c2ncc(NS(=O)(=O)c3ccccc3Cl)cc2C)cc2cnc(N[C@H]3CC[C@H](N)CC3)nc12.O=CO [20; Formic Acid]"
endpoint_result = "C (C: >50% to ≤75%)"

[[record]]
molecule = "CCc1cc(-c2ccc(NS(=O)(=O)c3ccccc3Cl)nc2C)cc2cnc(N[C@H]3CC[C@H](N)CC3)nc12.O=CO [16; Formic Acid]"
endpoint_result = "B (B: >25% to ≤50%)"

[[record]]
molecule = "CCc1cc(NS(=O)(=O)c2ccccc2Cl)ccc1-c1cc(CC)c2nc(N[C@H]3CC[C@H](N)CC3)ncc2c1.O=CO [34; Formic Acid]"
endpoint_result = "A (A: ≤25%)"

[[record]]
molecule = "CCc1cc(-c2ccc(NS(=O)(=O)c3ccccc3Cl)nn2)cc2cnc(N[C@H]3CC[C@H](N)CC3)nc12.O=CO [32; Formic Acid]"
endpoint_result = "B (B: >25% to ≤50%)"

[[record]]
molecule = "CCc1cc(-c2ccc(NS(=O)(=O)c3ccccc3Cl)c(F)c2C)cc2cnc(N[C@H]3CC[C@H](N)CC3)nc12.O=CO [71; Formic Acid]"
endpoint_result = "B (B: >25% to ≤50%)"

[[record]]
molecule = "CCc1cc(-c2ccc(NS(=O)(=O)c3ccccc3Cl)nc2)cc2cnc(N[C@H]3CC[C@H](N)CC3)nc12.O=CO [27; Formic Acid]"
endpoint_result = "B (B: >25% to ≤50%)"

